# System: E. coli TOP10
# Test Method Notes: Suicide expression system (SES) growth inhibition
# Format: cell-based
# Settings: Table 5; mixed-motif library, re-tested in the Bioscreen C
So I've got a bunch of substances here, and I need their Growth inhibition (%) values.
Please give a number only; it is taken to be in %.

Could you tell me which Growth inhibition (%) is on file for 218 (RRRPPRLPRPFPFRPPPRVPRPIPVRP; Synthetic antimicrobial peptide) [compound 218] ?
93

Could you tell me which Growth inhibition (%) is on file for 208 (RRRPPRFPRPFPVRPPPRFPRPIPVRP; Synthetic antimicrobial peptide) [compound 208] ?
95

Could you tell me which Growth inhibition (%) is on file for 235 (RRRPPRLPRPFPLRPPPRVPRPVPFRP; Synthetic antimicrobial peptide) [compound 235] ?
94

Could you tell me which Growth inhibition (%) is on file for 304 (RRRPPRLPRPVPVRPPPRFPRPVPIRP; Synthetic antimicrobial peptide) [compound 304] ?
90

Could you tell me which Growth inhibition (%) is on file for 314 (RRRPPRVPRPLPFRPPPRFPRPIPFRP; Synthetic antimicrobial peptide) [compound 314] ?
94

Could you tell me which Growth inhibition (%) is on file for 301 (RRRPPRLPRPVPIRPPPRVPRPVPLRP; Synthetic antimicrobial peptide) [compound 301] ?
92

Could you tell me which Growth inhibition (%) is on file for 256 (RRRPPRLPRPIPLRPPPRVPRPIPIRP; Synthetic antimicrobial peptide) [compound 256] ?
91

Could you tell me which Growth inhibition (%) is on file for 286 (RRRPPRLPRPLPVRPPPRIPRPLPLRP; Synthetic antimicrobial peptide) [compound 286] ?
95

Could you tell me which Growth inhibition (%) is on file for 212 (RRRPPRLPRPFPFRPPPRFPRPVPIRP; Synthetic antimicrobial peptide) [compound 212] ?
96

Could you tell me which Growth inhibition (%) is on file for 237 (RRRPPRLPRPFPLRPPPRVPRPVPVRP; Synthetic antimicrobial peptide) [compound 237] ?
96

Could you tell me which Growth inhibition (%) is on file for 248 (RRRPPRLPRPFPVRPPPRVPRPVPIRP; Synthetic antimicrobial peptide) [compound 248] ?
94

Could you tell me which Growth inhibition (%) is on file for 285 (RRRPPRLPRPLPVRPPPRIPRPFPVRP; Synthetic antimicrobial peptide) [compound 285] ?
91

Could you tell me which Growth inhibition (%) is on file for 271 (RRRPPRLPRPLPFRPPPRVPRPVPVRP; Synthetic antimicrobial peptide) [compound 271] ?
97

Could you tell me which Growth inhibition (%) is on file for 228 (RRRPPRLPRPFPLRPPPRFPRPFPIRP; Synthetic antimicrobial peptide) [compound 228] ?
96

Could you tell me which Growth inhibition (%) is on file for 278 (RRRPPRLPRPLPIRPPPRVPRPLPFRP; Synthetic antimicrobial peptide) [compound 278] ?
98

Could you tell me which Growth inhibition (%) is on file for 306 (RRRPPRLPRPVPVRPPPRFPRPVPVRP; Synthetic antimicrobial peptide) [compound 306] ?
90

Could you tell me which Growth inhibition (%) is on file for 245 (RRRPPRLPRPFPVRPPPRVPRPFPVRP; Synthetic antimicrobial peptide) [compound 245] ?
95

Could you tell me which Growth inhibition (%) is on file for 224 (RRRPPRLPRPFPIRPPPRVPRPFPVRP; Synthetic antimicrobial peptide) [compound 224] ?
93

Could you tell me which Growth inhibition (%) is on file for 266 (RRRPPRLPRPLPFRPPPRLPRPVPVRP; Synthetic antimicrobial peptide) [compound 266] ?
94
